Biological target: T1, human CD22 (d1 to d7 domain according to NP_001762.2) (human, UniProt P20273 20-687)
T1 construct: domain: d1 to d7 domain; also called human CD22-gly; Siglec-2
Test: SPR; mAb supernatant captured on protein A chip, human CD22 injected
QUANTITY: log10(Kd) (log10 of the value in nM)

- BINDER: "TNT86 (antibody, human IgG1, kappa, V domains shown) VH: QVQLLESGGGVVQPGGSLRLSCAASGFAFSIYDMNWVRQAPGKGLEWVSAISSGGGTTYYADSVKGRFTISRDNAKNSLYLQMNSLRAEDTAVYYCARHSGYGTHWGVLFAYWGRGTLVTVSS VL: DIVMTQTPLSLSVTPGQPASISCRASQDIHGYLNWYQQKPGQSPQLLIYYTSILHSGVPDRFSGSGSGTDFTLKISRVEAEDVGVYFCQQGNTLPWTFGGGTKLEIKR"
  QUANTITATIVE READOUT: 0.04
- BINDER: "TNT83 (antibody, human IgG1, kappa, V domains shown) VH: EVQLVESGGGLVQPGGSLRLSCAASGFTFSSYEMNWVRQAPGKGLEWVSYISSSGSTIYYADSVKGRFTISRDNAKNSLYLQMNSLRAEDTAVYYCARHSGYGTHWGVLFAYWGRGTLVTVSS VL: EIVLTQSPATLSLSPGERATLSCRASQDIHGYLNWYQQKPGQAPRLLIYYTSILHSGIPARFSGSGPGTDFTLTISSLEPEDFAVYYCQQGNTLPWTFGGGTKLEIKR"
  QUANTITATIVE READOUT: 0.77
- BINDER: "TNT82 (antibody, human IgG1, kappa, V domains shown) VH: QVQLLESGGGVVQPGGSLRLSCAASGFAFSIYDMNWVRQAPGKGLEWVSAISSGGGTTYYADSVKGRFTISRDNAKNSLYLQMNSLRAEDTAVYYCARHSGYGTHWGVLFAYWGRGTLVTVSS VL: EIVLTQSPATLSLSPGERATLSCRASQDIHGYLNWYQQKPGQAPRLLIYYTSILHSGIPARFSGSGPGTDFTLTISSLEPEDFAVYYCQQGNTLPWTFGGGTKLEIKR"
  QUANTITATIVE READOUT: -0.03
- BINDER: "TNT74 (antibody, human IgG1, kappa, V domains shown) VH: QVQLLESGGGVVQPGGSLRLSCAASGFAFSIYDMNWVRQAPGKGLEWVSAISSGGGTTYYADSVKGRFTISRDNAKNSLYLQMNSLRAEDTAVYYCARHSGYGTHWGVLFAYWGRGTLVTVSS VL: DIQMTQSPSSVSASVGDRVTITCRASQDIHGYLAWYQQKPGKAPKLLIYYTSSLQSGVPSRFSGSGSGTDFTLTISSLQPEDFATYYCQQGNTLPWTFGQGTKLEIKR"
  QUANTITATIVE READOUT: 1.19
- BINDER: "TNT88 (antibody, human IgG1, kappa, V domains shown) VH: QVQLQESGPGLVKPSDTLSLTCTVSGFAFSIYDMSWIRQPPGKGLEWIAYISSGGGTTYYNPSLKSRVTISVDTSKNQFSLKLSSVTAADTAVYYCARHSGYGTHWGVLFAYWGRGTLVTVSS VL: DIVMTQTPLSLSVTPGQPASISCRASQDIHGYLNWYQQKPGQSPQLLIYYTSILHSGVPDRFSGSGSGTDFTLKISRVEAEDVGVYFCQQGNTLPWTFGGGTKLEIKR"
  QUANTITATIVE READOUT: 0.13

The measurements presented in this section are drawn from patent US20220380768A1.
